- EXPERIMENTAL_DETAILS: qHTS of pediatric cancer cell lines to identify multiple opportunities for drug repurposing: Primary screen for NB1643 cells (AID 1347099); further: nearly all actives have a fitted effect of over 50% in size; further: potency means the concentration at half of the fitted maximal effect
- RUN_CONDITIONS: NB1643 neuroblastoma viability, CellTiter-Glo luminescence, 48 h; series mostly up to 46 µM
Results filed as inconclusive are left out. Active and inactive are the calls of the source. The call rests on the fitted dose curve; in most records, active means well fitted cell-killing curve with a large enough effect; inconclusive means small, poorly fitted or top-dose-only effect; inactive means no such curve, though single readings can be large or run the other way.
PARAMETER: Potency

Below are worked cases with known answers.
- COMPOUND: "Cn1c(=O)c(-c2c(Cl)cccc2Cl)cc2cnc(Nc3cccc(C(=O)O)c3)nc21"
  Potency: "inactive"
- COMPOUND: "CN1[C@H]2CC[C@H]1CC(OC(=O)c1c[nH]c3ccccc13)C2 (some centres not stated)"
  Potency: "23.5 µM (active)"
- COMPOUND: "Cc1ccccc1C(=O)c1ccc(Nc2ccc(Br)cc2N)cc1Cl"
  Potency: "20.9 µM (active)"
- COMPOUND: "COc1ccc(CCC(=O)Nc2nc3ccc(Cl)cc3s2)cc1OC"
  Potency: "5.26 µM (active)"
- COMPOUND: "O=C1Nc2ccc(I)cc2C1=Cc1cc(Br)c(O)c(Br)c1"
  Potency: "inactive"
- COMPOUND: "N#CC(=C1Nc2ccccc2S1)c1ccnc(OCc2ccc(CN3CCOCC3)cc2)n1"
  Potency: "0.0526 µM (active)"
- COMPOUND: "CS(=O)(=O)c1ccc(C2=C(c3ccccc3)C(=O)OC2)cc1"
  Potency: "inactive"
- COMPOUND: "O=C1C(CCC(O)c2ccc(F)cc2)C(c2ccc(O)cc2)N1c1ccc(F)cc1 (configuration not stated)"
  Potency: "inactive"

Ask: Can you share its Potency? I mean this compound: CCCCN(CCCC)CC(O)c1cc(Cl)cc2c1-c1ccc(Cl)cc1C2=Cc1ccc(Cl)cc1 (configuration not stated)
Result: inactive

Ask: Can you handle "Oc1cc(O)cc(C=Cc2ccc(O)c(O)c2)c1" next?
Result: 20.9 µM (active)

Ask: For "Nc1nc(Cl)nc2c1ncn2[C@@H]1O[C@H](CO)[C@@H](O)[C@H]1F" then?
Result: 3.72 µM (active)

Ask: What would you report for "CC1(COc2ccc3c(c2)ncn3-c2ccc3cccc(N4CCC(N)CC4)c3n2)COC1" ?
Result: inactive

Ask: Same for "OC[C@H]1O[C@@H](OCCc2ccc(O)cc2)[C@H](O)[C@@H](O)[C@H]1O"
Result: inactive

Ask: Next record, please: CN1CCN2c3ncccc3Cc3ccccc3C2C1 (configuration not stated)
Result: inactive

Ask: Now this one: "CC(C)(F)C[C@H](N[C@@H](c1ccc(-c2ccc(S(C)(=O)=O)cc2)cc1)C(F)(F)F)C(=O)NC1(C#N)CC1"
Result: inactive

Ask: Repeat with "C=C1c2cccc(O)c2C(O)=C2C(=O)[C@@]3(O)C(O)=C(C(N)=O)C(=O)[C@@H](N(C)C)[C@@H]3[C@@H](O)[C@H]12"
Result: 23.5 µM (active)

Ask: Another: "CC(=O)OCC(=O)[C@@]1(O)CC[C@H]2[C@@H]3CCC4=CC(=O)C=C[C@]4(C)[C@@H]3[C@@H](O)C[C@@]21C"
Result: inactive

Ask: Moving on to "CN1CCC[C@H]1CCO[C@](C)(c1ccccc1)c1ccc(Cl)cc1"
Result: 20.9 µM (active)

Ask: Input "C[C@H]1O[C@@H](n2cc(F)c(=O)[nH]c2=O)[C@H](O)[C@H]1O"
Result: 18.7 µM (active)

Ask: Also need "CC(C)c1onc(-c2c(Cl)cccc2Cl)c1COc1ccc(C=Cc2cccc(C(=O)O)c2)c(Cl)c1" , thanks.
Result: inactive

Ask: Continue with "CC(O)=C(C#N)C(=O)Nc1ccc(C(F)(F)F)cc1"
Result: 23.5 µM (active)

Ask: And "O=c1[nH]nc(OCCCc2ccc(Cl)cc2)c(NCc2cccnc2)c1Br" ?
Result: 23.5 µM (active)

Ask: Also need "CCc1cc(-c2n[nH]c(C)c2-c2ccc3c(c2)OCCO3)c(O)cc1O" , thanks.
Result: 10.5 µM (active)

---

- EXPERIMENTAL_DETAILS: Quantitative High-Throughput drug screen in 47 multiple myeloma cell lines against the NCATS MIPE library collection: KMS34_JCRB cell viability assay (AID 1918985); further: nearly all actives have a fitted effect of over 40% in size
- RUN_CONDITIONS: KMS34 myeloma viability, CellTiter-Glo ATP luminescence, 48 h; series mostly up to 45.8 µM
Results filed as inconclusive are left out. Active and inactive are the calls of the source. Calls come from the whole dose curve; as a rule, active = well fitted cell-killing curve with a large enough effect; inconclusive = small, poorly fitted or top-dose-only effect, or effect the other way; inactive = no such curve, though single readings can be large or run the other way.
Would you mind answering with one of these outcomes? active, inactive

Before answering, review these 5 worked examples.
- COMPOUND: "COC(=O)Nc1ccc(-c2nc(N3CCOCC3)c3cnn(C4CCN(C(=O)OC)CC4)c3n2)cc1"
  DISCRETE_LABEL: "active"
- COMPOUND: "CON(C)C(=O)N1N=C(c2cc(F)ccc2F)S[C@]1(CCCN)c1ccccc1"
  DISCRETE_LABEL: "inactive"
- COMPOUND: "CCOC(=O)N1c2ccc(C(F)(F)F)cc2[C@@H](N(Cc2cc(C(F)(F)F)cc(C(F)(F)F)c2)C(=O)OC)C[C@H]1CC"
  DISCRETE_LABEL: "active"
- COMPOUND: "COc1cc2ncnc(Nc3cc(Br)c(O)c(Br)c3)c2cc1OC"
  DISCRETE_LABEL: "active"
- COMPOUND: "COc1cc([C@H]2Oc3cc([C@H]4Oc5cc(O)cc(O)c5C(=O)[C@H]4O)ccc3O[C@H]2CO)ccc1O"
  DISCRETE_LABEL: "active"

Ask: Hi, sorry to bother you, what did the test record for "COc1cc2nc(-c3cc(F)ccc3O)nc(N[C@@H]3CNC[C@@H]3C(C)(C)O)c2cc1OC" ?
Result: active

Ask: Same read-out for "COc1c(C)cnc(Cn2cnc3c(Cl)nc(N)nc32)c1C" ?
Result: active

Ask: Now the compound CC1CNc2c(cccc2S(=O)(=O)N[C@@H](CCCN=C(N)N)C(=O)N2CC[C@@H](C)C[C@@H]2C(=O)O)C1 (stereo not given in full)
Result: inactive

---

- EXPERIMENTAL_DETAILS: Quantitative High-Throughput drug screen in 47 multiple myeloma cell lines against the NCATS MIPE library collection: OPM2_DSMZ cell viability assay (AID 1919872); further: nearly all actives have a fitted effect of over 30% in size
- RUN_CONDITIONS: OPM2 myeloma viability, CellTiter-Glo ATP luminescence, 48 h; series mostly up to 45.8 µM
- From the text: PI: Beverly A. Mock Ph.D. Laboratory of Cancer Biology and Genetics, Center for Cancer Research, National Cancer Institute, National Institute of Health, Bethesda, Maryland […] 5; Detector; 425V; Luminescence; Viewlux PerkinElmer. […] 1. […] Briefly, the corresponding myeloma cell lines were screened in 1,536-well plates with 500 cells, 5-uL per well for inhibition of cell viability (assessed by measuring ATP levels with CellTiterGlo). […]
Records with an inconclusive call do not appear. Active and inactive are the calls of the source. Calls follow the shape of the dose curve; as a rule, active = well fitted cell-killing curve with a large enough effect; inconclusive = small, poorly fitted or top-dose-only effect, or effect the other way; inactive = no such curve, though single readings can be large or run the other way.
Return exactly one item of 1 = active, -1 = inactive

Reference set, count: 7
- SMI: "COc1ccc(-c2cc3nccn3c(Nc3ncccc3C(N)=O)n2)cc1OC"
  DISCRETE_LABEL: 1
- SMI: "Cc1cnc(-c2cc(N3CCN(C(=O)CCS(C)(=O)=O)CC3)ncc2Cl)c(C)c1"
  DISCRETE_LABEL: -1
- SMI: "CC(C)c1onc(-c2c(Cl)cccc2Cl)c1COc1ccc(C=Cc2cccc(C(=O)O)c2)c(Cl)c1"
  DISCRETE_LABEL: -1
- SMI: "COc1ccc(-c2cc(=O)c3c(O)cc(O[C@@H]4O[C@H](CO[C@@H]5O[C@@H](C)[C@H](O)[C@@H](O)[C@@H]5O)[C@@H](O)[C@H](O)[C@@H]4O)cc3o2)cc1O"
  DISCRETE_LABEL: -1
- SMI: "CC(C)=CCCC(C)=CCCC(C)=CCCC(C)=CCCC(C)=CCCC(C)=CCCC(C)=CCCC(C)=CCCC(C)=CCO"
  DISCRETE_LABEL: -1
- SMI: "NC1(C(=O)N[C@@H](CCO)c2ccc(Cl)cc2)CCN(c2ncnc3[nH]ccc23)CC1"
  DISCRETE_LABEL: 1
- SMI: "COc1cc(CNC(=O)CCCCC=CC(C)C)ccc1O"
  DISCRETE_LABEL: -1

Field: next compound
Ask: Per the assay record, what outcome was assigned to "C[C@]12C=CC(=O)C=C1CC[C@@H]1[C@@H]2[C@@H](O)C[C@@]2(C)[C@@H]1CC[C@]2(O)C(=O)CO" ?
Result: -1

---

- EXPERIMENTAL_DETAILS: qHTS of pediatric cancer cell lines to identify multiple opportunities for drug repurposing: Primary screen for DAOY cells (AID 1347090); further: nearly all actives have a fitted effect of over 55% in size; further: potency means the concentration at half of the fitted maximal effect
- RUN_CONDITIONS: DAOY medulloblastoma viability, CellTiter-Glo luminescence, 48 h; series mostly up to 46 µM
Results filed as inconclusive are left out. The source made the active and inactive calls. The call rests on the fitted dose curve; in most records, active means well fitted cell-killing curve with a large enough effect; inconclusive means small, poorly fitted or top-dose-only effect; inactive means flat fitted curve, though single readings scatter.
PARAMETER: Potency

The following compounds have reported results that may help.
- COMPOUND: "Cc1ccc(C(=O)N(CCCN)[C@@H](c2oc3cc(Cl)ccc3c(=O)c2Cc2ccccc2)C(C)C)cc1"
  Potency: "1 nM (active)"
- COMPOUND: "C[C@@H]1CC=CC=CC=CC=C[C@@H](O[C@@H]2O[C@H](C)[C@@H](O)[C@H](N)[C@H]2O)C[C@@H]2O[C@](O)(C[C@@H](O)C[C@@H]3O[C@@H]3C=CC(=O)O1)C[C@H](O)[C@@H]2C(=O)O"
  Potency: "7430 nM (active)"
- COMPOUND: "CC[C@H]1OC(=O)[C@H](C)[C@@H](O[C@H]2C[C@@](C)(OC)[C@@H](O)[C@H](C)O2)[C@H](C)[C@@H](O[C@@H]2O[C@H](C)C[C@H](N(C)C)[C@H]2O)[C@](C)(O)C[C@H](C)C(=NOCOCCOC)[C@H](C)[C@@H](O)[C@]1(C)O"
  Potency: "inactive"
- COMPOUND: "Cc1ccc(S(=O)(=O)Nc2nc3ccccc3nc2Nc2ccc3nsnc3c2)cc1"
  Potency: "407 nM (active)"
- COMPOUND: "CC(C)CNc1ccnc(NCc2csc(-c3ccccc3)n2)n1"
  Potency: "18700 nM (active)"

Ask: Would you mind telling me what Potency value was observed for "COc1cc([C@@H]2c3cc4c(cc3[C@@H](O[C@@H]3O[C@@H]5CO[C@@H](C)O[C@@H]5[C@H](O)[C@@H]3O)[C@H]3COC(=O)[C@H]23)OCO4)cc(OC)c1O" ?
Result: 1480 nM (active)

Ask: What about this compound? "CCNC(=O)[C@H]1O[C@@H](n2cnc3c(N)nc(NCCc4ccc(CCC(=O)O)cc4)nc32)[C@H](O)[C@H]1O"
Result: inactive

Ask: Then what about the compound "Nc1ccc(-c2ccc3ncc4ccc(=O)n(-c5cccc(C(F)(F)F)c5)c4c3c2)cn1" ?
Result: 7.4 nM (active)

Ask: What about "Oc1cc(O)cc(C=Cc2ccc(O)c(O)c2)c1" ?
Result: inactive

Ask: Please answer likewise for "CC(=O)N1CCN(c2ccc(OCc3nn(C)c(C)c3-c3cccc4c(CCCOc5cc(C)c(Cl)c(C)c5)c(C(=O)O)n(Cc5cccnc5)c34)cc2)CC1"
Result: 18700 nM (active)

// provenance: PubChem BioAssay (NCATS)
